This collection of values is drawn from patent US9073941B2.

molecular target: lipoamide dehydrogenase (Lpd) (Mycobacterium tuberculosis (strain ATCC 25618 / H37Rv), UniProt P9WHH9); experiment: Lipoamide Dehydrogenase (Lpd) Inhibition Assay; assay type: biochemical; settings: concentration required for 50% inhibition of LPD activity; DTNB detection, OD405 nm
Value Kind: pIC50
Formally, pIC50 is defined as -log10 of the concentration c, with c in mol/L.

{"columns": ["Molecule", "pIC50"],
 "data": [
  ["CCn1cnc(S(=O)(=O)N2CCC(C(=O)Nc3ccc(C)c(Cl)c3)CC2)c1 [Compound 544]", 5.34]
]}

In: What pIC50 value was documented for this molecule, C=CCn1c(NS(=O)(=O)c2ccccc2)c(C#N)c2nc3ccccc3nc21 [Compound 1002] ?
Out: 6.01

In: What pIC50 value was documented for this molecule, Cc1ccc(NC(=O)C2CCN(S(=O)(=O)c3cn(C(C)C)cn3)CC2)cc1Cl [Compound 533] ?
Out: 5.58

In: What pIC50 value was documented for this molecule, Cc1ccc(NC(=O)C2CCN(S(=O)(=O)c3cn(C(C)C)cn3)CC2)cc1C [Compound 510] ?
Out: 5.61

In: What pIC50 value was documented for this molecule, COc1ccc2cc(CNc3ccc(O)cc3)c(O)nc2c1 [Compound 801] ?
Out: 5.65

In: What pIC50 value was documented for this molecule, Oc1ccc(NCc2cc3cc4c(cc3nc2O)OCO4)cc1 [Compound 804] ?
Out: 5.33

In: What pIC50 value was documented for this molecule, CCOc1ccc(CNC(=O)C2CCN(S(=O)(=O)c3cn(C(C)C)cn3)CC2)cc1OC [Compound 561] ?
Out: 5.52

In: What pIC50 value was documented for this molecule, Cc1ccc(C)c(NC(=O)C2CCN(S(=O)(=O)c3cn(C(C)C)cn3)CC2)c1 [Compound 529] ?
Out: 5.41
